Every entry's value here was drawn from patent US20250228239A1.

- System: Yellow Fever Mosquito (Aedes aegypti, AEDSAE)
- Type: in vivo
- condition.label: Table ABC: Biological Results; species YFM
observed.property: YFM

1. Cc1cc(NCc2ccc(Cl)cc2)ccc1NC(=O)c1cc(NC(=O)[C@H]2[C@H](c3cc(Cl)cc(Cl)c3)C2(Cl)Cl)ccc1Cl (relative stereo); A (80–100)
2. O=C(Nc1ccc(F)cc1F)c1cc(NC(=O)[C@H]2[C@H](c3ccc(F)c(Cl)c3F)C2(Cl)Cl)ccc1Cl (relative stereo); A (80–100)
3. Cc1cc(NCc2ccccc2)ccc1NC(=O)c1cc(NC(=O)[C@H]2[C@H](c3cc(Cl)cc(Cl)c3)C2(Cl)Cl)ccc1Cl (relative stereo); A (80–100)
4. C=C(F)c1cc(NC(=O)c2cc(NC(=O)[C@H]3[C@H](c4cc(Cl)cc(Cl)c4)C3(Cl)Cl)ccc2Cl)cc(F)c1F (relative stereo); A (80–100)
5. CC(F)(F)C(=O)Nc1c(F)ccc(NC(=O)c2cc(NC(=O)[C@H]3[C@H](c4ccc(Cl)c(Cl)c4)C3(Cl)Cl)ccc2Cl)c1F; A (80–100)
6. CC(C)(C)OC(=O)Nc1c(F)ccc(NC(=O)c2cc(NC(=O)[C@@H]3[C@@H](c4ccc(F)c(C(F)(F)F)c4)C3(Cl)Cl)ccc2Cl)c1F; A (80–100)
7. O=C(Nc1ccc(F)cc1F)c1cc(NC(=O)[C@H]2[C@@H](c3ccc(F)c(Cl)c3F)C2(Cl)Cl)ccc1Cl (relative stereo); A (80–100)
8. O=C(Nc1c(F)ccc(NC(=O)C(F)F)c1F)c1cc(NC(=O)[C@H]2[C@H](c3ccc(F)c(Cl)c3)C2(Cl)Cl)ccc1Cl; A (80–100)
9. Cc1cc(NC(=O)[C@H]2[C@H](c3ccc(F)c(Cl)c3)C2(Cl)Cl)cc(C(=O)Nc2ccc(F)cc2)c1Cl (relative stereo); A (80–100)
10. CN(C(=O)c1cc(NC(=O)[C@H]2[C@H](c3ccc(F)c(C(F)(F)F)c3)C2(Cl)Cl)ccc1Cl)c1ccc(F)c(N)c1F (relative stereo); A (80–100)
11. O=C(Nc1ccc(F)cc1F)c1cc(NC(=O)[C@H]2[C@@H](c3cc(C(F)(F)F)cc(Cl)c3F)C2(Cl)Cl)ccc1Cl (relative stereo); A (80–100)
12. O=C(Nc1ccc(F)cc1F)c1cc(NC(=O)[C@H]2[C@H](c3cc(Cl)cc(Cl)c3)C2(F)F)ccc1Cl (relative stereo); A (80–100)

====

Measured pest or weed control at 50 µg/cm2 accompanies every entry in the list below.
- System: Cabbage Looper (Trichoplusia ni, TRIPNI)
- assay.text: Bioassays on Cabbage Looper (CL), 128-well diet tray assay
- Type: in vivo
- condition.label: Trichoplusia ni; Cabbage Looper; rating class; read-out: CL
observed.property: pest or weed control at 50 µg/cm2

1) CNc1c(F)ccc(NC(=O)c2cc(NC(=O)[C@H]3[C@H](c4ccc(Cl)c(Cl)c4)C3(Cl)Cl)ccc2Cl)c1F; 50 to 100%
2) CCOC(CC)C(=O)Nc1c(F)ccc(NC(=O)c2cc(NC(=O)[C@H]3[C@H](c4ccc(F)c(C(F)(F)F)c4)C3(Cl)Cl)ccc2Cl)c1F (stereo partly shown); 50 to 100%
3) CCCOC(C)C(=O)Nc1c(F)ccc(NC(=O)c2cc(NC(=O)[C@H]3[C@H](c4ccc(F)c(C(F)(F)F)c4)C3(Cl)Cl)ccc2Cl)c1F (stereo partly shown); 50 to 100%
4) O=C(CC(F)(F)F)Nc1c(F)ccc(NC(=O)c2cc(NC(=O)[C@H]3[C@H](c4ccc(Cl)c(Cl)c4)C3(Cl)Cl)ccc2Cl)c1F; 50 to 100%
5) CC(=O)C(=O)Nc1c(F)ccc(NC(=O)c2cc(NC(=O)[C@H]3[C@H](c4ccc(F)c(C(F)(F)F)c4)C3(Cl)Cl)ccc2Cl)c1F; 50 to 100%
6) Nc1cc(NC(=O)c2cc(NC(=O)[C@H]3[C@H](c4ccc(F)c(C(F)(F)F)c4)C3(Cl)Cl)ccc2Cl)c(F)cc1F; 50 to 100%
7) CC(=O)Nc1cc(NC(=O)c2cc(NC(=O)[C@H]3[C@H](c4ccc(F)c(C(F)(F)F)c4)C3(Cl)Cl)ccc2Cl)c(F)cc1F; 50 to 100%
8) O=C(Nc1c(F)ccc(NC(=O)C(F)F)c1F)c1cc(NC(=O)[C@H]2[C@H](c3ccc(F)c(C(F)(F)F)c3)C2(Cl)Cl)ccc1F; 50 to 100%
9) O=C(Nc1ccc(F)cc1F)c1cc(NC(=O)[C@@H]2[C@@H](c3cc(F)c(F)c(F)c3)C2(Cl)Cl)ccc1Cl; 50 to 100%
10) O=C(Nc1ccc(F)cc1F)c1cc(NC(=O)[C@@H]2[C@@H](c3ccc(F)c(F)c3)C2(Cl)Cl)ccc1Cl; 50 to 100%
11) Cc1cc(NC(=O)[C@H]2[C@H](c3cc(Cl)c(Cl)c(Cl)c3)C2(Cl)Cl)cc(C(=O)Nc2c(F)ccc(N)c2F)c1Cl; 50 to 100%
12) CC(=O)Nc1cc(F)cc(F)c1NC(=O)c1cc(NC(=O)[C@H]2[C@H](c3cc(Cl)cc(Cl)c3)C2(Cl)Cl)ccc1Cl (relative stereo); 50 to 100%
13) CCC(=O)Nc1c(F)ccc(NC(=O)c2cc(NC(=O)[C@H]3[C@H](c4cc(Cl)c(Cl)c(Cl)c4)C3(Cl)Cl)ccc2Cl)c1F; 50 to 100%
